# tested system: 5-hydroxytryptamine receptor 1D (Bos taurus)
# procedure details: Ability to bind to 5-hydroxytryptamine 1D receptor of calf substantia nigra
For each record, check the reported IC50: if it is below 10 nM write Y, else write N.

Use these answered entries as a reference point.
compound | assigned label
Clc1ccc(NCCCNCC2CCc3ccccc3O2)nn1 (stereo not drawn) | Y
CC(C)NC(=N)NNCCCNCC1CCc2ccccc2O1 (stereo not drawn) | Y
c1cnc(NCCCNCC2CCc3ccccc3O2)nc1 (stereo not drawn) | Y
c1ccc2c(c1)CCC(CNCCCNC1=NCCN1)O2 (stereo not drawn) | Y
Fc1ccc2c(c1)CCC(CNCCCNC1=NCCCN1)O2 (stereo not drawn) | Y

Lab log: compare recorded IC50 with 10 nM; is it strictly lower for O=C1CCCN=C(NCCCNCC2CCc3ccccc3O2)N1 (stereo not drawn) ? N
